The reported numbers originate from patent US20230263817A1.

# protocol: Randomized trial of NR in HFrEF: whole blood NR and NAD+ levels
# Assay type: in vivo, human
# assay_context: human, whole blood, oral, 1000 mg twice daily; NR group; read-out: on-trial changes in whole blood NR levels (Week 12-Week 0), Mean±SE
readout_type: concentration at 12 weeks (nM)
Give bare numbers, in nM.

# concentration at 12 weeks of NC(=O)c1ccc[n+]([C@@H]2O[C@H](CO)[C@@H](O)[C@H]2O)c1 [NR, nicotinamide riboside] = 2
